Molecular target: integrin CD11c/CD18 (Homo sapiens)
Construct: expressed in transfected cells; host or cells: K562 (ATCC)
Sequence (P20702 with tags, fused parts or gaps): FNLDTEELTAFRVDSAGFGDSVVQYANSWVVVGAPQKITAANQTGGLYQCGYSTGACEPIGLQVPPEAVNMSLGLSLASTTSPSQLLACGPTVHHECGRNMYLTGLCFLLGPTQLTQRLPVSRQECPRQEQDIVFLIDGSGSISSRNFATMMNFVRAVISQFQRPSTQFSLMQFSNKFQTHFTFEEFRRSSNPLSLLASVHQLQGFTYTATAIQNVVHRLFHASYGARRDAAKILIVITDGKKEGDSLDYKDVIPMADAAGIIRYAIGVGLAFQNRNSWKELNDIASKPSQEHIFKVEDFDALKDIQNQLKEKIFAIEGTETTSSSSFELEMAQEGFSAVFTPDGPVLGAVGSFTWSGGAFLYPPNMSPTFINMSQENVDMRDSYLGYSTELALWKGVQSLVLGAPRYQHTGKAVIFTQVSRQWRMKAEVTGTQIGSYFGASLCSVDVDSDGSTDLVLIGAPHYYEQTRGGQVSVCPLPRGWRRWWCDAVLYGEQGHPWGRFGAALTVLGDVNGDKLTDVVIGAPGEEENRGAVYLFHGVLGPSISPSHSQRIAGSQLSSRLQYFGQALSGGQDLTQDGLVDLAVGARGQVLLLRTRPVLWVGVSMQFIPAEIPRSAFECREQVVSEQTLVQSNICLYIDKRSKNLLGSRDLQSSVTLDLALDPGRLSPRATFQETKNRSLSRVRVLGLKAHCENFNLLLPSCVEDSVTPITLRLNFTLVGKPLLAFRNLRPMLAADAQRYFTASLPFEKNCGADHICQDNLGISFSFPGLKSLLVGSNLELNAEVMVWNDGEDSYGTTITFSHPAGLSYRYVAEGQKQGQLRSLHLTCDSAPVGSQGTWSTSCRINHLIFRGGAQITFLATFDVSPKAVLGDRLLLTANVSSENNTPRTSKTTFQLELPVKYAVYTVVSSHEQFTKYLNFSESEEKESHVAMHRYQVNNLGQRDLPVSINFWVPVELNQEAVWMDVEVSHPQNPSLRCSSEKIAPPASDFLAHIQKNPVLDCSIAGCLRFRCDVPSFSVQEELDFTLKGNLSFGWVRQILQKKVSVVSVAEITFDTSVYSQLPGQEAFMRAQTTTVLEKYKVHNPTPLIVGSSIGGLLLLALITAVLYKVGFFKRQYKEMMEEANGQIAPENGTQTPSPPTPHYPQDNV
Sequence (P05107 23-769 partner): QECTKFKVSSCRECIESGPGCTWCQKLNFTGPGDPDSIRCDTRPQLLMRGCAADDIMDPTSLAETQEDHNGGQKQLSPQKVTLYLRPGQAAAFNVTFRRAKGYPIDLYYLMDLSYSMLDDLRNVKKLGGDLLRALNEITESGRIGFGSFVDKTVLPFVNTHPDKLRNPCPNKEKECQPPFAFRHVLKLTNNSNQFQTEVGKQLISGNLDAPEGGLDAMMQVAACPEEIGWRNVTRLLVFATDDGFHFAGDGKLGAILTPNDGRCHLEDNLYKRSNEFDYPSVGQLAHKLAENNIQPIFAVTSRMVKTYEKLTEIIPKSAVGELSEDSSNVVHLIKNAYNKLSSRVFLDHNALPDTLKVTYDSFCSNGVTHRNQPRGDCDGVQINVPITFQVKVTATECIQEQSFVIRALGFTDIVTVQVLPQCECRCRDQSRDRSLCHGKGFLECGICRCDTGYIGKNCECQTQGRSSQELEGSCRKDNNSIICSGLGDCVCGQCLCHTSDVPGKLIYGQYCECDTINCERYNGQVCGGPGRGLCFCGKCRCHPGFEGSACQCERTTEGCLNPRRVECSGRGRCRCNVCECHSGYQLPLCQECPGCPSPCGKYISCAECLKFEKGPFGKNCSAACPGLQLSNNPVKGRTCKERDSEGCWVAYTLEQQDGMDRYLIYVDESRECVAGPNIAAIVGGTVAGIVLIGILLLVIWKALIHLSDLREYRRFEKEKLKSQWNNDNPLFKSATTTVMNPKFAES
Experiment: HTS cell adhesion assay, K562 CD11c/CD18 cells on immobilized fibrinogen
Type: cell-based
experimental_readout: pEC50
Lab note: report pEC50 as minus log10 of the concentration in molar units, number only.

Observe how each entry below is paired with its result.
compound	pEC50
O=C(Nc1nc(-c2ccco2)c(-c2ccco2)s1)C1CC(=O)N(c2ccc3c(c2)OCCO3)C1 (centres unmarked)	5.52
N=C1/C(=C\c2ccc(-c3cccc(Cl)c3)o2)C(=O)N=C2SC=C(c3ccccc3)N12	5.67
Cc1cc(C)cc(-n2c(N)c(C(=O)Nc3c(C)n(C)n(-c4ccccc4)c3=O)c3nc4ccccc4nc32)c1	5.60
O=C(Nc1ccc(N2CCN(c3ccc(O)cc3)CC2)cc1)Oc1ccccc1	5.67
C=CCn1c(SCC(=O)c2ccc(CNC(C)=O)o2)nc2scc(C3CC3)c2c1=O	5.28
O=C(Nc1ccc2nc(-c3ccco3)c(-c3ccco3)nc2c1)N1CCCCCC1	5.60
Cc1c(N2C(=O)c3ccc4c5c(ccc(c35)C2=O)CC4)c(=O)n(-c2ccccc2)n1C	5.64

Could you now consider this next compound?
Summary for this compound, O=C(Nc1nnc(-c2ccccc2SCc2ccccc2)s1)Nc1ccccc1F : pEC50 is 4.98
